Value source: PubChem BioAssay (NCI)

# Test system: SK-MEL-28 melanoma
# Test summary: NCI-60 one-dose screen, 48 h (100 = growth as untreated, 0 = no growth, -100 = all killed)
# Measurement parameters: 10 µM unless noted
This is part of a sample that, as a whole, favours compounds with a hit. Of some 83,000 tested, about 20% had one in any assay.
// classify: if (growth < 10%) true else false

I wonder whether O=C(N=c1oc2ccccc2cc1-c1cc2ccccc2[nH]1)Nc1ccc(Cl)cc1 has growth below 10%. Can you tell? false

Further cases:
I wonder whether CCCCn1c(=O)c(-c2cc(-c3ccc(Cl)cc3)nc(-c3ccc(Cl)cc3)c2)cc2cc(Cl)ccc21 has growth below 10%. Can you tell? false

I wonder whether COc1cc(C(=O)/C=C/c2ccc(OCCCCCC[P+](c3ccccc3)(c3ccccc3)c3ccccc3)cc2)cc(OC)c1OC has growth below 10%. Can you tell? true

I wonder whether COC(=O)CCC/C=C\C[C@H]1C=CC(=O)/C1=C/C[C@@H](O)CCc1cccc(C(F)(F)F)c1 has growth below 10%. Can you tell? true

I wonder whether CCOC(=O)c1cn2ncnc(Oc3ccc(NC(=O)NCCN4CCN(C)CC4)c(Cl)c3)c2c1C has growth below 10%. Can you tell? false

I wonder whether CC1Cc2ccccc2N1NC(=O)c1ccc(Cl)c(S(N)(=O)=O)c1 (stereo not given) has growth below 10%. Can you tell? false

====

# Test system: PC-3 prostate
# Test summary: NCI-60 one-dose screen, 48 h (100 = growth as untreated, 0 = no growth, -100 = all killed)
# Measurement parameters: 10 µM unless noted
About 83,000 compounds went through this panel and 20% of them were active in at least one assay; those are over-represented in the sample as a whole.
Property: growth (%)
Supply the numeric figure in %, leaving out any unit text.

Answered examples (2):
Give its growth value. Item: O=C(O)CCC(=O)Nc1nnc(-c2ccccc2)s1 94.8

Give its growth value. Item: O=[N+]([O-])c1ccc(Cl)c(-c2cc(CCCCO)on2)c1 104

Further cases:
Give its growth value. Item: NCCNc1nc2ccccc2c2c(=O)c3cc(F)ccc3sc12 80.2

====

# Test system: A549/ATCC NSCLC
# Test summary: NCI-60 one-dose screen, 48 h (100 = growth as untreated, 0 = no growth, -100 = all killed)
# Measurement parameters: 10 µM unless noted
About 83,000 compounds went through this panel and 20% of them were active in at least one assay; those are over-represented in the sample as a whole.
Entries and their growth
Supply the numeric figure in %, leaving out any unit text.

Give its growth value. Item: Clc1ccc(C(/C=C/c2sc(Cl)nc2Cl)=N/Nc2cc(Cl)cc(Cl)c2)cc1 103

Give its growth value. Item: O=c1c2cc(F)ccc2sc2c(N3CCNCC3)nc3ccccc3c12 34.4

Give its growth value. Item: CC(C)n1cnc2c(Nc3cccc(Cl)c3)nc(N[C@H]3CCCC[C@@H]3N)nc21 55.7

Give its growth value. Item: CCOC(=O)c1sc2ncc(-c3ccc(OC)cc3)n2c1C 104

Give its growth value. Item: COc1ccc(-c2nc3sc(-c4ccc(Cl)cc4)cn3n2)cc1 -30.3

Give its growth value. Item: COc1cccc(-c2nc(-c3ccc(NS(=O)(=O)c4ccccc4)cc3)[nH]c2-c2ccnc(Br)c2)c1 29

Give its growth value. Item: N#Cc1c(-c2ccc(Cl)cc2)nc(NCCO)[nH]c1=O 93.9

Give its growth value. Item: c1ccc(-c2nc3sc(-c4ccccc4)cn3n2)cc1 89.6

Further cases:
Give its growth value. Item: COc1ccc2cc(C(C)C(=O)Nc3ccc(-c4n[nH]c(=S)n4C4CCCCC4)cc3)ccc2c1 (stereo not drawn) 41.2

====

# Tested on: COLO 205 colon
# Test summary: NCI-60 one-dose screen, 48 h
# Measurement parameters: 10 µM unless noted
Compounds without any hit were thinned out: in the full panel of roughly 83,000, 20% have a hit. The source made the active and inactive calls. Rule for the calls: active = growth percent below 10; inactive = the rest.
// allowed return values: true (1) (active), false (0) (inactive)

The following molecules have reported results that may help.
Answer briefly: the call reported for Cc1nn(-c2ccccc2)c2c1N=c1s/c(=C\c3ccc(C(F)(F)F)cc3)c(=O)n1CN2 in this assay. false (0)

Answer briefly: the call reported for O=C1COCCN1c1ccc(NCc2cn(C(=O)c3ccc(Cl)cc3)c3ccccc23)cc1 in this assay. false (0)

Answer briefly: the call reported for NS(=O)(=O)c1ccc(N=Nc2ccc(-c3nn4cc(-c5ccccc5)nc4s3)cc2)cc1 in this assay. false (0)

Let us examine a further case.
Answer briefly: the call reported for O=c1c2cc(C(F)(F)F)ccc2sc2c(NCCCNCCO)nc3ccccc3c12 in this assay. true (1)

====

# System: M14 melanoma
# Test summary: NCI-60 one-dose screen, 48 h
# Measurement parameters: 10 µM unless noted
About 83,000 compounds went through this panel and 20% of them were active in at least one assay; those are over-represented in the sample as a whole. Activity calls are given as the source filed them. How the source made its calls: active means growth percent below 10; inactive means the rest.
// allowed return values: active, inactive

The following molecules have reported results that may help.
Answer briefly: the call reported for CC(C)C(=O)Nc1ccc(-c2nc(-c3cccc(OCCN4CCOCC4)c3)c(-c3ccnc(Br)c3)[nH]2)cc1 in this assay. inactive

Answer briefly: the call reported for c1ccc2c(c1)Nc1ccncc1S2 in this assay. inactive

Answer briefly: the call reported for N#Cc1cccc(NC(=O)c2cc(-c3ccc(F)cc3F)ccc2O)c1 in this assay. inactive

Answer briefly: the call reported for Cc1cc2nc3ccc(N=Nc4ccc(N(C)C)cc4)cc3n(-c3ccccc3)c-2cc1=N in this assay. active

Further cases:
Answer briefly: the call reported for CCCCOc1ccc(/C=N/NC(N)=S)cc1 in this assay. inactive

Answer briefly: the call reported for Cc1cc(C)c(-c2c(N)cc(Br)cc2Br)c(N)c1 in this assay. inactive

Answer briefly: the call reported for CNCCCC12CCC(c3ccccc31)c1ccccc12 in this assay. inactive

Answer briefly: the call reported for Cc1cc(=O)oc2cc(OC(=O)N3CCN(C)CC3)ccc12 in this assay. inactive

Answer briefly: the call reported for COc1cccc(OC)c1C(=O)N[C@@H]1C(=O)N2[C@@H]1SC(C)(C)[C@@H]2C(=O)O in this assay. inactive

Answer briefly: the call reported for O=c1c2cc(F)ccc2sc2c(NCCO)nc3ccccc3c12 in this assay. inactive

Answer briefly: the call reported for CCCCn1c(-c2ccc(C(=O)O/N=C(\N)c3ccc(OC)cc3)cc2)nc(-c2ccccc2)c1-c1ccccc1 in this assay. inactive

Answer briefly: the call reported for CC1Cc2c(ncn3c(-c4ccc(F)cc4)nnc23)N(C)c2ccccc21 (stereo unspecified) in this assay. inactive

====

# Tested on: KM12 colon
# Test summary: NCI-60 one-dose screen, 48 h (100 = growth as untreated, 0 = no growth, -100 = all killed)
# Measurement parameters: 10 µM unless noted
# Protocol: Growth inhibition of the KM12 human tumor cell line is measured as a screen for anti-cancer activity. Cells are grown in 96 well plates and exposed to the test compound for 48 hours. Compounds are tested at a single concentration, which is 10^-5 M for most compounds. The reported endpoint is percent growth (GI% or GIPRCNT), where numbers from 0 - 100% represent growth inhibition, and numbers from -100% - 0 represent cell death. For example, a value of 40 represents 60% growth inhibition. […]
The panel holds about 83,000 compounds, 20% with a hit somewhere; the sample as a whole holds those more often.
Entries and their growth
Supply the numeric figure in %, leaving out any unit text.

Answered examples (2):
Give its growth value. Item: CCOc1cccc(NC2=C(Br)C(=O)C(C)=C(C)C2=O)c1 106

Give its growth value. Item: COc1cc(CCC[P+](c2ccccc2)(c2ccccc2)c2ccccc2)c(OC)c(OC)c1OC 75.9

Consider the additional compound presented here.
Give its growth value. Item: Cc1ccc2nc(NC(=O)CSc3nc(Cl)c(C#N)c(-c4ccccc4)n3)sc2c1 110

====

# Tested on: K-562 leukemia
# Test summary: NCI-60 one-dose screen, 48 h
# Measurement parameters: 10 µM unless noted
# Protocol: Cells are grown in 96 well plates and exposed to the test compound for 48 hours. Compounds are tested at a single concentration, which is 10^-5 M for most compounds. The reported endpoint is percent growth (GI% or GIPRCNT), where numbers from 0 - 100% represent growth inhibition, and numbers from -100% - 0 represent cell death. For example, a value of 40 represents 60% growth inhibition. A value of 0 means no net growth occurred over the course of the experiment. […]
About 83,000 compounds went through this panel and 20% of them were active in at least one assay; those are over-represented in the sample as a whole. The source made the active and inactive calls. How the source made its calls: active means growth percent below 10; inactive means the rest.
// allowed return values: t (active), f (inactive)

The following compounds have reported results that may help.
Answer briefly: the call reported for COc1ccc2c(c1OC)C(=O)O[C@H]2[C@H]1c2c(cc3c(c2OC)OCO3)CCN1C in this assay. f

Answer briefly: the call reported for COc1ccc(OC)c(/C=C/C(=O)N/N=C/c2ccc(Cl)cc2)c1 in this assay. f

Answer briefly: the call reported for O=C(Nc1c2ccccc2nc2ccccc12)c1ccccc1CN1C(=O)c2ccccc2C1=O in this assay. f

Answer briefly: the call reported for COc1ccc(NC2=C(Br)C(=O)C(C)=C(C)C2=O)cc1 in this assay. t

Answer briefly: the call reported for c1ccc(Cc2nn3cc(-c4ccccc4)nc3s2)cc1 in this assay. f

Further cases:
Answer briefly: the call reported for COc1ccc(OC)c(/C=C/c2nnc(Nc3ccccc3)o2)c1 in this assay. f
